These data points were gathered from patent US20240216402A1.

# Measurement notes: Determination of solubility in buffers at different pHs (saturated solubility by HPLC)
# Type: physicochemical
# Run conditions: pH 5.5 phosphate buffer, aqueous buffer, thermodynamic from solid; pH 5.5 buffer (pH 5.47), phosphate, 37° C., 24 hours
Readout type: solubility at 24 h (µg/mL)
Numeric only. Scale: µg/mL

Prompt line: Return the recorded solubility at 24 h value; entry: COc1cc(N2CCC3(CCN(C)CC3)CC2)ccc1Nc1ncc(Cl)c(Nc2ccccc2P(C)(C)=O)n1 [spirocyclic aryl phosphorus oxide]
Response line: 7100
